assay: logD7.4 assay (Chrom log D method); format: physicochemical; details: pH 7.4, read-out: Measured logD7.4
MEASUREMENT TYPE: chromatographic logD
Give a plain numeric answer without units written out.

Entry Cn1c(=O)c2c(c3cc(Nc4ccnc(Cl)c4Cl)ccc31)N[C@@H](C1CC1)C(F)(F)CO2 [compound 15] has what chromatographic logD?
3.2

====

target: NAV1.5 (Homo sapiens, UniProt Q14524); experiment: SAFETYscan Ion Channel NAV1.5 Blocker
Sequence (Q14524 whole entry): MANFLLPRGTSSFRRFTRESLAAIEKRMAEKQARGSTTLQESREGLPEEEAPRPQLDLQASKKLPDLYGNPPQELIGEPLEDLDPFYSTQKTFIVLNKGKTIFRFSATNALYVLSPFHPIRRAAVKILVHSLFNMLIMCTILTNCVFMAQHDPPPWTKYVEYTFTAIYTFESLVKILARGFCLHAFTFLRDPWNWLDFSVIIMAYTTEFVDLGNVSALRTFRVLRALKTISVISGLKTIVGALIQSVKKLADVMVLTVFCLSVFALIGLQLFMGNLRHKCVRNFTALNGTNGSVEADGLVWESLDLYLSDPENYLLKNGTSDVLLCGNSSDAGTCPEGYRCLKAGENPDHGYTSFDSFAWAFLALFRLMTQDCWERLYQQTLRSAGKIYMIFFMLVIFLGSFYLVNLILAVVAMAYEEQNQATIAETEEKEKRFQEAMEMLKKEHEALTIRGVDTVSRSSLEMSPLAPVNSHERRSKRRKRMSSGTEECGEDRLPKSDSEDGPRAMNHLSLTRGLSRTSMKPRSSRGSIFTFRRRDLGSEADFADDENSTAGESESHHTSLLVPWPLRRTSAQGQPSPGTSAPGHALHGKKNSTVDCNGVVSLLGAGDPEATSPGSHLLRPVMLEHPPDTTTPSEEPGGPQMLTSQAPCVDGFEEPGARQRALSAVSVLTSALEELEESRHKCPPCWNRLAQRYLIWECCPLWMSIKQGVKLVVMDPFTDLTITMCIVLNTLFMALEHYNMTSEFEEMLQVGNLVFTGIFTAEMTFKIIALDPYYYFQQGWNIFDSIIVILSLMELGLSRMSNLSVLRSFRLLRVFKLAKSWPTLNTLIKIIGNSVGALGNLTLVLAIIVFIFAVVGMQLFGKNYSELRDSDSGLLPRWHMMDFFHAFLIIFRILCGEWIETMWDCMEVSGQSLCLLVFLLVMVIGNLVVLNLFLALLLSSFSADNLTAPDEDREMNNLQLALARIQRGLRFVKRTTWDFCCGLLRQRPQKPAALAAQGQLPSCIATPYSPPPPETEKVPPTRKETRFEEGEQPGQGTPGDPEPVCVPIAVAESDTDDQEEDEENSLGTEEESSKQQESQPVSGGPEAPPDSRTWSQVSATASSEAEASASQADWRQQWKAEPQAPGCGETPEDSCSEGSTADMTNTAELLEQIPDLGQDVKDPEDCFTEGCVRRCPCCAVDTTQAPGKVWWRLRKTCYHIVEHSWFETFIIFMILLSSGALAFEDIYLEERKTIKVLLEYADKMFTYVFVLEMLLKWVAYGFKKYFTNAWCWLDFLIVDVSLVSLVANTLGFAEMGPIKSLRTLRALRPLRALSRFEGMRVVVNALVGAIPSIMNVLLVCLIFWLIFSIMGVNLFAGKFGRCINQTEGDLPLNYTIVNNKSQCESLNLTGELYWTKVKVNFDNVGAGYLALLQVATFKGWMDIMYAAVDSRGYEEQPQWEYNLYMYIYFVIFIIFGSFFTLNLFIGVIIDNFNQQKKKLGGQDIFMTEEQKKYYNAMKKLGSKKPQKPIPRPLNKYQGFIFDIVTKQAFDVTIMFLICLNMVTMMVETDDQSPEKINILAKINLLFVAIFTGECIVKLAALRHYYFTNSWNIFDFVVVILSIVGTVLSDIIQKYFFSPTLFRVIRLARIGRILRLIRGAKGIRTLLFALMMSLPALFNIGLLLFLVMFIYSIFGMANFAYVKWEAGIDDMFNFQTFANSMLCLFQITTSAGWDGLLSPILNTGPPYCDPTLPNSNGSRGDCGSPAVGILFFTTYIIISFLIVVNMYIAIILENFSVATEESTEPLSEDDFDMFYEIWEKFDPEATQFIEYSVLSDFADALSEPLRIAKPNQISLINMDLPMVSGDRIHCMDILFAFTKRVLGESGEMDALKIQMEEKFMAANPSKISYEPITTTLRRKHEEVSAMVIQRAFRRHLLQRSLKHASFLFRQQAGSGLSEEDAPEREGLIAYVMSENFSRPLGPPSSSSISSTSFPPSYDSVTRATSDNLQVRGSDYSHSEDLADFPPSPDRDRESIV
pIC50: −log10 of the molar value.
MEASUREMENT TYPE: pIC50

Fill in: pIC50 of Cn1c(=O)c2c(c3cc(Nc4ccnc(F)c4Cl)ccc31)N[C@@H](C1CC1)C(F)(F)CO2 [compound 17] is ___
< 5.00

The values you see were collected from paper PMC10150366.
